# Test system: PC-3 prostate
# Test: NCI tumour cell line growth inhibition, 48 h
For each of the compounds below, state its TGI.

Please review the entries below; each comes with its answer.
O=[N+]([O-])C(C(Cl)=C(Cl)Cl)=C(n1nnc2ccccc21)n1nnc2ccccc21 : > 67.3 µM
O=C(Cn1c2c(c3ccccc31)CCCC2)N1CCCCC1 : > 100 µM
CC[C@@H]([C@H](O)c1ccccc1Cl)[N+](=O)[O-] : > 100 µM

Return reported TGI values for all items listed beneath this line.
1. CNn1c(-c2ccc(C)cc2)n[nH]c1=O
2. COc1ccc(-c2c(-c3ccccc3)c(C)nc3[nH]c(=S)[nH]c(=S)c23)cc1OC
3. CC(=O)CCc1ccc(Oc2c3c(nc4ccccc24)OCC3)cc1
4. Clc1cc(OCc2nn3c(Cc4ccccc4)nnc3s2)c(Cl)cc1OCc1nn2c(Cc3ccccc3)nnc2s1
5. C[C@H](CCC(=O)NCCS(=O)(=O)O)[C@H]1CC[C@H]2[C@@H]3[C@H](O)C[C@@H]4C[C@H](O)CC[C@]4(C)[C@H]3CC[C@]12C

OUT:
["> 100 µM", "> 100 µM", "> 100 µM", "> 100 µM", "> 100 µM"]

* * *

# Test system: RXF 393 renal
# Test: NCI tumour cell line growth inhibition, 48 h
Measure: TGI

Please review the entries below; each comes with its answer.
CCN(CC)/[N+]([O-])=N/OCOC : > 100 µM
C=C1CCC2[C@](C)(CCC[C@]2(C)C(=O)O)[C@@H]1CCc1ccoc1 (some centres undefined) : > 100 µM

Return reported TGI values for all items listed beneath this line.
1. CC(C)[C@@H]1CC[C@@H](C)C[C@H]1OC(=O)/C=C1\C(C(=O)O[C@@H]2C[C@H](C)CC[C@H]2C(C)C)[C@H]2C=C[C@@H]1O2 (some centres undefined)
2. COc1cc([C@@H]2OC(=O)C3C2C(=O)O[C@H]3c2ccc(O)c(OC)c2)ccc1O (some centres undefined)

OUT:
> 100 µM
> 100 µM

* * *

For each of the compounds below, state its TGI.
# Tested on: UACC-62 melanoma
# Test: NCI tumour cell line growth inhibition, 48 h

CNCC(=O)NC(CO)C(=O)NC(CO)C(=O)NC1C(C(N)=O)OC(n2ccc(N)nc2=O)C(O)C1O (stereo unspecified) : 16.8 µg/mL
NCCCC(N=Cc1nc(-c2ccccc2)oc1O)C(=O)O (stereo unspecified) : > 100 µM
Cc1ccc(NC(=S)C#N)c(C)c1 : > 100 µM
CC(=O)CCc1ccc(Oc2c3c(nc4ccccc24)OCC3)cc1 : > 100 µM
CCCCCCCCC(C)CCCCCCCCC(=O)OCC(COP(=O)([O-])OCC[N+](C)(C)C)OC(=O)CCCCCCCCC(C)CCCCCCCC (stereo unspecified) : > 100 µM

IN: Using the record for CSCC(CO)NC(=O)/C=C/c1c(C)[nH]c(=O)[nH]c1=O (stereo unspecified) , report its TGI.
OUT: > 875 µM

* * *

# Tested on: T-47D breast
# Test: NCI tumour cell line growth inhibition, 48 h
For each of the molecules below, state its TGI.

Please review the entries below; each comes with its answer.
COC(=O)CSc1nc2[nH]c(SC)c(C(N)=O)c2c(=O)n1-c1ccccc1 : > 10 µM
Cn1cc(C2=C(c3cc[nH]c3)C(=O)NC2=O)c2ccccc21 : > 25 µM

Now for a further molecule.
IN: Lab request: please report TGI under test system T-47D breast for CN(C)c1cc2c(Nc3ccc4c(cnn4Cc4ccccc4)c3)ncnc2cn1
OUT: > 20.5 µM

* * *

For each of the compounds below, state its TGI.
# Tested on: SN12C renal
# Test: NCI tumour cell line growth inhibition, 48 h

CC(=O)NC1CC(C(C)(C)NC(C)=O)CC=C1C (stereo not drawn) : > 100 µM
CCO[C@@]12CCC3CC4CC[C@@](OCC)(O1)C4C32 (stereo partly drawn) : > 100 µM

Now for a further compound.
IN: Using the record for C(=C\c1ccncc1)/c1ccncc1 , report its TGI.
OUT: > 100 µM

* * *

# System: PC-3 prostate
# Test: NCI tumour cell line growth inhibition, 48 h
For each of the compounds below, state its TGI.
Answers are plain numbers, in µM.

Please review the entries below; each comes with its answer.
Cc1ccnc2c(NC(C)CCCN)cc(O)c(O)c12 (configuration not stated) : 53.8
CC1CC(=NC2CCCCC2)Nc2ccccc2N1Cc1ccccc1 (configuration not stated) : 18.3

IN: Using the record for O=C1C=C(NCC(c2ccccc2)c2ccccc2)C(=O)c2ncccc21 , report its TGI.
OUT: 6.24
